Tested on: Hepatoma cell Hep3B (high expression of FGFR4 and FGF19)
Assay: Hepatoma cell proliferation inhibition experiment (MTS method)
Format: cell-based
Conditions: Homo sapiens, Hep3B; 120 h incubation; read-out: Hep3B(IC50 μM)
Structures can show the parent of a compound that is named as a salt.
Rule: IC50 below 0.05 µM gives t. Equal to or above 0.05 µM gives f.

[[record]]
compound = "CSCCNc1cc(NC(=O)N2CCCc3cc(CN(C)C(=O)C4CCOC4)c(C=O)nc32)ncc1C#N.Cl (centres unmarked) [Compound 76, hydrochloride]"
group_label = "t"

[[record]]
compound = "CN1CCN(Cc2cc3c(nc2C=O)N(C(=O)Nc2cc(NCc4nccs4)c(C#N)cn2)CCC3)C(=O)C1"
group_label = "t"

[[record]]
compound = "CSCCNc1cc(NC(=O)N2CCCc3cc(CN(C)C(=O)[C@H]4CCCO4)c(C=O)nc32)ncc1C#N [Compound 74, hydrochloride]"
group_label = "f"

[[record]]
compound = "CSC[C@H](C)Nc1cc(NC(=O)N2CCCc3cc(CN4CCN(C)CC4=O)c(C=O)nc32)ncc1C#N"
group_label = "t"

[[record]]
compound = "CSCCNc1cc(NC(=O)N2CCCc3cc(CN(C)C(=O)[C@@H]4CCCO4)c(C=O)nc32)ncc1C#N.Cl [Compound 75, hydrochloride]"
group_label = "t"

[[record]]
compound = "C[C@H](C[S+](C)[O-])Nc1cc(NC(=O)N2CCCc3cc(CN4CCN(C)CC4=O)c(C=O)nc32)ncc1C#N (some centres unmarked)"
group_label = "f"

[[record]]
compound = "CN1CCN(Cc2cc3c(nc2C=O)N(C(=O)Nc2cc(NCC[S+](C)[O-])c(C#N)cn2)CCC3)C(=O)C1 (centres unmarked)"
group_label = "f"

[[record]]
compound = "COCCNc1cc(NC(=O)N2CCCc3cc(CN4CCN(C)CC4=O)c(C=O)nc32)ncc1C#N [Reference compound, roblitinib, reference compound]"
group_label = "t"

[[record]]
compound = "CN1CCN(Cc2cc3c(nc2C=O)N(C(=O)Nc2cc(NCCSC(F)(F)F)c(C#N)cn2)CCC3)C(=O)C1"
group_label = "f"

[[record]]
compound = "CSCCCNc1cc(NC(=O)N2CCCc3cc(CN4CCN(C)CC4=O)c(C=O)nc32)ncc1C#N"
group_label = "t"

[[record]]
compound = "CO[C@@H]1CCN(Cc2cc3c(nc2C=O)N(C(=O)Nc2cc(NCCSC)c(C#N)cn2)CCC3)C1=O"
group_label = "t"

[[record]]
compound = "CN1CCN(Cc2cc3c(nc2C=O)N(C(=O)Nc2cc(NC4CCSCC4)c(C#N)cn2)CCC3)C(=O)C1"
group_label = "t"

[[record]]
compound = "C[C@H](CS(C)(=O)=O)Nc1cc(NC(=O)N2CCCc3cc(CN4CCN(C)CC4=O)c(C=O)nc32)ncc1C#N"
group_label = "f"

[[record]]
compound = "CSC[C@@H](C)Nc1cc(NC(=O)N2CCCc3cc(CN4CCN(C)CC4=O)c(C=O)nc32)ncc1C#N"
group_label = "t"


----------
Catalogue of molecules with associated AUC(0-t)
Test: PK analysis of rats
Type: in vivo
Conditions: Sprague-Dawley (SD), rat, plasma, po, p.o. (10 mg/kg), read-out: Curve area AUC0-24 h
Structures can show the parent of a compound that is named as a salt.
OBSERVABLE: AUC(0-t) (ng·h/mL)

[[record]]
molecule = "CCSCCNc1cc(NC(=O)N2CCCc3cc(CN4CCN(C)CC4=O)c(C=O)nc32)ncc1C#N [Compound 71, hydrochloride]"
observable = "AUC(0-t)"
unit_spec = "ng·h/mL"
value = 1950

[[record]]
molecule = "CSCCNc1cc(NC(=O)N2CCCc3cc(CN4CCN(C)CC4=O)c(C=O)nc32)ncc1C#N [Compound 1]"
observable = "AUC(0-t)"
unit_spec = "ng·h/mL"
value = 2370

